Target: recombinant N-terminal PMS2 (residues 1-365) (Homo sapiens, UniProt P54278)
Construct: recombinant N-terminal PMS2 (residues 1-365)
Assay: Fluorescence Polarisation Assay for PMS2
Format: binding
Conditions: fluorescence polarisation probe displacement; 10 nM N-terminal PMS2, 5 nM probe compound; read-out: PMS2 IC50
The entries below are paired with their reported IC50.

# molecule, IC50
rows = [
    ("CN(C)C(=O)c1ccc2c(c1)CN(C(=O)c1c(O)cc(O)cc1OCc1ccccc1)C2", "< 1 µM"),
    ("CNCc1ccc2c(c1)CN(C(=O)c1c(O)cc(O)cc1OCc1ccccc1)C2", "< 1 µM"),
    ("O=C(c1c(O)cc(O)cc1OCc1ccccc1)N1CCc2cccc(N[C@@H]3CCOC3)c2C1", "> 10 µM"),
    ("CN1CCC(Oc2cc3c(c(N[C@@H]4CCOC4)c2)CN(C(=O)c2c(O)cc(O)cc2OCc2ccccc2)CC3)CC1", "1 to 10 µM"),
    ("COCOc1cc(OCOC)c(C(=O)N2CCc3cccc(N(C)C4CN(C(C)=O)C4)c3C2)c(OCc2ccccc2)c1", "> 10 µM"),
    ("O=C(c1c(O)cc(O)cc1OCc1ccccc1)N1Cc2cccc(N[C@H]3CCOC3)c2C1", "< 1 µM"),
    ("O=C(c1c(O)cc(O)cc1OCc1ccccc1)N1CCc2cccc(NC3CCS(=O)(=O)C3)c2C1 (single isomer, unassigned) [Example 147a]", "> 10 µM"),
    ("CN1CCC(Nc2cccc3c2CN(C(=O)c2c(O)cc(O)cc2OCc2ccccc2)CC3)CC1=O (stereo not shown)", "> 10 µM"),
    ("CC(=O)NCc1cccc2c1CN(C(=O)c1c(O)cc(O)cc1OCc1ccccc1)C2", "1 to 10 µM"),
    ("O=C(c1c(O)cc(O)cc1OCC1CCCCC1)N1Cc2cccc(NC3CCOC3)c2C1 (stereo not shown)", "1 to 10 µM"),
    ("O=C(c1c(O)cc(O)cc1OCc1ccccc1)N1Cc2ccc(CNC3COC3)cc2C1", "< 1 µM"),
    ("CN1CC(Nc2cccc3c2CN(C(=O)c2c(O)cc(O)cc2OCc2ccccc2)CC3)CC1=O (single isomer, unassigned) [Example 61]", "> 10 µM"),
    ("O=C(c1c(O)cc(O)cc1OCC1CC1)N1Cc2cccc(NC3CCOC3)c2C1 (stereo not shown)", "1 to 10 µM"),
    ("N#CC1CC(Oc2cccc3c2CN(C(=O)c2c(O)cc(O)cc2OCc2ccccc2)C3)C1 (stereo not shown)", "1 to 10 µM"),
    ("CNCc1cccc2c1CN(C(=O)c1c(O)cc(O)cc1OCc1ccccc1)C2", "1 to 10 µM"),
    ("CN(C)Cc1ccc2c(c1)CN(C(=O)c1c(O)cc(O)cc1OCc1ccccc1)C2", "1 to 10 µM"),
    ("Cn1cc(Nc2cccc3c2CN(C(=O)c2c(O)cc(O)cc2OCc2ccccc2)C3)cn1", "1 to 10 µM"),
    ("O=C(c1c(O)cc(O)cc1OCC1CCOCC1)N1Cc2cccc(NC3CCOC3)c2C1 (stereo not shown)", "> 10 µM"),
    ("CN(C)Cc1cc2c(c(N[C@@H]3CCOC3)c1)CN(C(=O)c1c(O)cc(O)cc1OCc1ccccc1)CC2", "1 to 10 µM"),
    ("CN(C)C(=O)c1cc2c(c(N[C@@H]3CCOC3)c1)CN(C(=O)c1c(O)cc(O)cc1OCc1ccccc1)CC2", "1 to 10 µM"),
    ("Cc1ncncc1Nc1cccc2c1CN(C(=O)c1c(O)cc(O)cc1OCc1ccccc1)CC2", "> 10 µM"),
    ("CN1CC(Nc2cccc3c2CN(C(=O)c2c(O)cc(O)cc2OCc2ccccc2)CC3)CCC1=O (stereo not shown)", "> 10 µM"),
]

---

The entries below are paired with their reported IC50.
Biological target: recombinant N-terminal PMS2 (residues 1-365) (Homo sapiens, UniProt P54278)
Construct: recombinant N-terminal PMS2 (residues 1-365)
Sequence (P54278 1-365): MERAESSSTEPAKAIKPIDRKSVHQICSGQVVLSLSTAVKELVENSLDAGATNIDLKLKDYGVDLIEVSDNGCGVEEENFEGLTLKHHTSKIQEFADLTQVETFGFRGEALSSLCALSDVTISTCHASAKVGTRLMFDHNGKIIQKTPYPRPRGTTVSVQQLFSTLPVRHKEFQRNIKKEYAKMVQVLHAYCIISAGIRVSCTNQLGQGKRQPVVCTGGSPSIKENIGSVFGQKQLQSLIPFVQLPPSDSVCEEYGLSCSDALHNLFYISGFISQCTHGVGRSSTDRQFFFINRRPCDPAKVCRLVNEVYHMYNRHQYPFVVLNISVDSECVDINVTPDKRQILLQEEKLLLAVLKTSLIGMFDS
Assay: Fluorescence Polarisation Assay for PMS2
Type: binding
Conditions: fluorescence polarisation probe displacement; 10 nM N-terminal PMS2, 5 nM probe compound; read-out: PMS2 IC50
Where a name gives a salt, the structure may show the parent alone.

# compound, IC50
measured = [
    ("O=C(c1c(O)cc(O)cc1OCc1ccccc1)N1Cc2cccc(NC3CCCOC3)c2C1 (single isomer, unassigned) [Example 31]", "> 10 µM"),
    ("CN(C)CCOc1cc2c(c(N[C@H]3CCOC3)c1)CN(C(=O)c1c(O)cc(O)cc1OCc1ccccc1)CC2 [Example 132]", "< 1 µM"),
    ("COC1COCC1Nc1cccc2c1CN(C(=O)c1c(O)cc(O)cc1OCc1ccccc1)CC2 (stereo not drawn) [Example 148]", "> 10 µM"),
    ("O=C(c1c(O)cc(O)cc1OCc1ccccc1)N1CCc2cccc(Nc3cncnc3)c2C1 [Example 71]", "1 to 10 µM"),
    ("O=C(c1c(O)cc(O)cc1OCc1ccccc1)N1Cc2ccccc2C(O)C1 (single isomer, unassigned) [Example 51]", "> 10 µM"),
    ("NCCCCCN1CCN(Cc2ccc3c(c2)CN(C(=O)c2c(O)cc(O)cc2OCc2ccccc2)C3)CC1 [Example 104, hydrochloride]", "< 1 µM"),
    ("CC(C)(C)OC(=O)NCCCCCN1CCN(Cc2ccc3c(c2)CN(C(=O)c2c(O)cc(O)cc2OCc2ccccc2)C3)CC1 [Example 103]", "< 1 µM"),
    ("O=C(c1c(O)cc(O)cc1OCc1ccccc1)N1Cc2cccc(NC34CCC(C3)OC4)c2C1 (stereo not drawn) [Example 53]", "1 to 10 µM"),
    ("COc1cc2c(c(NC3CCOC3)c1)CN(C(=O)c1c(O)cc(O)cc1OCc1ccccc1)CC2 (stereo not drawn) [Example 54]", "1 to 10 µM"),
    ("CN(c1cccc2c1CN(C(=O)c1c(O)cc(O)cc1OCc1ccccc1)CC2)C1CCOC1 (stereo not drawn) [Example 143]", "> 10 µM"),
    ("CC(=O)N1CCC(Nc2cccc3c2CN(C(=O)c2c(O)cc(O)cc2OCc2ccccc2)C3)C1 (stereo not drawn) [Example 36]", "1 to 10 µM"),
    ("CC(Nc1cccc2c1CN(C(=O)c1c(O)cc(O)cc1OCc1ccccc1)C2)C1COC1 (stereo not drawn) [Example 45]", "1 to 10 µM"),
    ("Nc1cccc2c1CN(C(=O)c1c(O)cc(O)cc1OCc1ccccc1)CC2 [Example 100]", "1 to 10 µM"),
    ("COCCOc1cc2c(c(N[C@@H]3CCOC3)c1)CN(C(=O)c1c(O)cc(O)cc1OCc1ccccn1)CC2 [Example 142]", "> 10 µM"),
    ("O=C(c1c(O)cc(O)cc1OCc1ccccc1)N1CCc2cccc(N[C@H]3CCOC3)c2C1 [Example 2]", "1 to 10 µM"),
    ("O=C(c1c(O)cc(O)cc1OCc1ccccc1)N1CCc2nccc(N[C@H]3CCOC3)c2C1 [Example 63]", "1 to 10 µM"),
    ("O=C(c1c(O)cc(O)cc1OCc1ccccc1)N1Cc2cccc(NCc3cocn3)c2C1 [Example 20]", "1 to 10 µM"),
    ("CN1C[C@H](Nc2cccc3c2CN(C(=O)c2c(O)cc(O)cc2OCc2ccccc2)C3)CC1=O [Example 136]", "< 1 µM"),
    ("CC(=O)N1CCC[C@H](Nc2cccc3c2CN(C(=O)c2c(O)cc(O)cc2OCc2ccccc2)CC3)C1 [Example 67]", "> 10 µM"),
    ("CN1C[C@@H](Nc2cccc3c2CN(C(=O)c2c(O)cc(O)cc2OCc2ccccn2)CC3)CC1=O [Example 58]", "> 10 µM"),
    ("COCCOc1cc2c(c(N[C@@H]3CCOC3)c1)CN(C(=O)c1c(O)cc(O)cc1OCC1CC1)CC2 [Example 141]", "> 10 µM"),
    ("Cn1ccc(Nc2cccc3c2CN(C(=O)c2c(O)cc(O)cc2OCc2ccccc2)CC3)cc1=O [Example 133]", "1 to 10 µM"),
    ("COCCOc1cc2c(c(N[C@@H]3CCOC3)c1)CN(C(=O)c1c(O)cc(O)cc1OCc1ccccc1)CC2 [Example 60]", "> 10 µM"),
    ("O=C(c1c(O)cc(O)cc1OCc1ccccc1)N1Cc2cccc(Nc3cn[nH]c3)c2C1 [Example 34]", "1 to 10 µM"),
]

# credit: patent US20240293392A1
